- protocol.notes: Passive transcellular permeability of the compound by PAMPA
- Type: ADME
- condition.details: read-out: permeability
measure.name: Papp (×10⁻⁶ cm/s)
Form entry: value (×10⁻⁶ cm/s) — number only.

Reported Papp ( N#Cc1ccccc1N1CCN(C(=O)COCc2ccccc2)CC1 ) = 2.2

----------
- test.system: Metabotropic glutamate receptor 5 (Rattus norvegicus)
- Sequence (P31424 whole entry): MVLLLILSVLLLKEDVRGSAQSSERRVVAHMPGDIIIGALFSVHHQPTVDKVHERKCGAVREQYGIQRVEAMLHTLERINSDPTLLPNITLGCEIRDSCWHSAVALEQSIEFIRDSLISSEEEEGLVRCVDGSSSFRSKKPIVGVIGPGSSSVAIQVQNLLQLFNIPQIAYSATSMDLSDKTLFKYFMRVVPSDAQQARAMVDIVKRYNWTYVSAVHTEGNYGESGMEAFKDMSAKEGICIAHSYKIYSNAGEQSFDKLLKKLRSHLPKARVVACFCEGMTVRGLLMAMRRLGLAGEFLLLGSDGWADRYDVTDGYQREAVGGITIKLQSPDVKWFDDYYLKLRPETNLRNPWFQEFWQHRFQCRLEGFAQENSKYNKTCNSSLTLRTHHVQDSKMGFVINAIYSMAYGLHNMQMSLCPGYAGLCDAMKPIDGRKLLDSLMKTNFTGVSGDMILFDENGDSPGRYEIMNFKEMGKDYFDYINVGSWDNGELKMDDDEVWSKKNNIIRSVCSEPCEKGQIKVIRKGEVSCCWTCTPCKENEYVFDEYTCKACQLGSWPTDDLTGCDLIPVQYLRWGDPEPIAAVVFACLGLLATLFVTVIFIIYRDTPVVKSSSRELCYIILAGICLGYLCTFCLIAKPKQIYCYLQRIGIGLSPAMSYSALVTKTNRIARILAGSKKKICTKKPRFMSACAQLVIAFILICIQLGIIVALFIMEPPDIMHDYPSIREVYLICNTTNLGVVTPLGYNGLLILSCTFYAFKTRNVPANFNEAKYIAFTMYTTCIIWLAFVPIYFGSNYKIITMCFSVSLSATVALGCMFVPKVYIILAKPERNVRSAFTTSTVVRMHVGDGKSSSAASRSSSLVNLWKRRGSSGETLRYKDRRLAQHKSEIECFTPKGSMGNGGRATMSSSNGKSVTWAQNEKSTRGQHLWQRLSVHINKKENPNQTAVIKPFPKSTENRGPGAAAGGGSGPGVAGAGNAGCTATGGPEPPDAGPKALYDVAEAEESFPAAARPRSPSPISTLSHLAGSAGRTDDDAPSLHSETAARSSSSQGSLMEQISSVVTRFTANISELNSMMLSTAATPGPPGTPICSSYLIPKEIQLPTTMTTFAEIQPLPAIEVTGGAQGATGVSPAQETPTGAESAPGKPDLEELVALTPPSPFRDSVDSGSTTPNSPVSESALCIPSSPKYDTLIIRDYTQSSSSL
- protocol.notes: Negative allosteric modulation at rat mGluR5 receptor
measure.name: pIC50
Note on units: pIC50 is unitless, being -log10 of a concentration expressed in mol/L.

Reported pIC50 ( O=C(N1CCN(c2ccccn2)CC1)C12CC3CC(CC(C3)C1)C2 ) = 6.00

----------
- test.system: Metabotropic glutamate receptor 5 (Rattus norvegicus)
- protocol.notes: Positive allosteric modulation at rat mGluR5 receptor expressed in HEK293 cells assessed as glutamate-induced calcium fluorescence at 30 uM by Fluo-4/AM dye-based fluorescence assay in relative to glutamate
- Assay type: functional, cell-based
measure.name: Activity (%)
Form entry: value (%) — number only.

A selection of reference data follows.
>  <smiles.entry>
O=C(COCc1ccccc1)N1CCN(c2ncccc2C(F)(F)F)CC1

>  <measure.unit>
%

>  <Activity>
70

$$$$
>  <smiles.entry>
COc1ccccc1N1CCN(C(=O)COCc2ccccc2)CC1

>  <measure.unit>
%

>  <Activity>
86

$$$$
>  <smiles.entry>
O=C(COCc1ccccc1)N1CCN(c2nc3ccccc3s2)CC1

>  <measure.unit>
%

>  <Activity>
66

$$$$
>  <smiles.entry>
N#Cc1cccnc1N1CCN(C(=O)COCc2ccccc2)CC1

>  <measure.unit>
%

>  <Activity>
33

$$$$
>  <smiles.entry>
O=C(COCc1ccccc1)N1CCN(c2ccccn2)CC1

>  <measure.unit>
%

>  <Activity>
86

$$$$
>  <smiles.entry>
N#Cc1ccccc1N1CCN(C(=O)COCc2ccccc2)CC1

>  <measure.unit>
%

>  <Activity>
78

$$$$
>  <smiles.entry>
COC(=O)c1ccccc1N1CCN(C(=O)COCc2ccccc2)CC1

>  <measure.unit>
%

>  <Activity>
51

$$$$
>  <smiles.entry>
O=C(COCc1ccccc1)N1CCN(c2ccccc2[N+](=O)[O-])CC1

>  <measure.unit>
%

>  <Activity>
81

$$$$

Let us examine a further case.
Reported Activity ( O=C(COCc1ccccc1)N1CCN(c2nccs2)CC1 ) = 30
